Assay: Selectivity index, ratio of IC50 for human HepG2 cells to IC50 for […] erythrocytic stage Plasmodium falciparum 3D7
Type: toxicity
Settings: read-out: Selectivity Index
Cut-off 7 on selectivity ratio, inclusive. At or above means YES; below means NO.

Previously resolved entries follow.
COc1ccc2c3ccnc(C)c3n(CCNC(=O)/C=C/c3ccc(C(F)(F)F)cc3)c2c1
YES
Cc1nc(Cn2cc(COC(=O)/C=C/c3cccc(Br)c3)nn2)cc2c1[nH]c1ccccc12
NO
Cc1nccc2c1[nH]c1ccc(OCCNC(=O)/C=C/c3ccc(F)cc3)cc12
YES
COc1ccc(/C=C/C(=O)NCc2cc3c([nH]c4ccccc43)c(C)n2)cc1
NO
Cc1nccc2c1[nH]c1ccc(OCCNC(=O)/C=C/c3ccc(C(F)(F)F)cc3)cc12
YES

From here, focus on the item given below.
Data request: Assess whether reported selectivity ratio for `Cc1nccc2c1[nH]c1ccc(OCCNC(=O)/C=C/c3ccccc3)cc12` sits at 7 or higher.
Data returned: YES

* * *

Assay: Selectivity index, ratio of IC50 for human HepG2 cells to IC50 for […] erythrocytic stage Plasmodium falciparum 3D7
Assay type: toxicity
Conditions: read-out: Selectivity Index
The threshold is 20. Values of selectivity ratio beneath it are tagged class 1; values meeting or exceeding it are tagged class 0.

Previously resolved entries follow.
Cc1nccc2c1[nH]c1ccc(OCc3cn(C/C=C/c4cccc(Br)c4)nn3)cc12
class 0
Cc1nc(CNC(=O)/C=C/c2cccc(F)c2)cc2c1[nH]c1ccccc12
class 1
Cc1nc(Cn2cc(COC(=O)/C=C/c3ccc(Cl)cc3)nn2)cc2c1[nH]c1ccccc12
class 1
Cc1nc(CNC(=O)/C=C/c2ccc(F)cc2)cc2c1[nH]c1ccccc12
class 1
COc1ccc(/C=C/C(=O)NCCOc2ccc3[nH]c4c(C)nccc4c3c2)cc1
class 0
Cc1nc(CNC(=O)/C=C/c2ccc(C(F)(F)F)cc2)cc2c1[nH]c1ccccc12
class 1

From here, focus on the item given below.
Data request: I wonder whether `Cc1nccc2c1[nH]c1ccc(OCCNC(=O)/C=C/c3cccc(F)c3)cc12` has selectivity ratio below 20. Can you tell?
Data returned: class 0

* * *

Recorded selectivity ratio values for a group of compounds are listed next.
Assay: Selectivity index, ratio of IC50 for human HepG2 cells to IC50 for […] erythrocytic stage Plasmodium falciparum 3D7
Type: toxicity
Settings: read-out: Selectivity Index
Response field accepts a number only; no unit should be typed.

Example results:
Cc1nc(CNC(=O)/C=C/c2cccc(C(F)(F)F)c2)cc2c1[nH]c1ccccc12
4.66
Cc1nc(CNC(=O)/C=C/c2ccc(Cl)cc2)cc2c1[nH]c1ccccc12
3.88

Data request: I am curious: what selectivity ratio value has been reported for `COc1ccc2c3ccnc(C)c3n(CCNC(=O)/C=C/c3cccc(C(F)(F)F)c3)c2c1` ?
Data returned: 1110

Data request: Also check `Cc1nccc2c1[nH]c1ccc(OCc3cn(C/C=C/c4ccc(Cl)cc4)nn3)cc12`
Data returned: 6.93

Data request: Also check `Cc1nc(CNC(=O)/C=C/c2cccc(Br)c2)cc2c1[nH]c1ccccc12`
Data returned: 2.98

* * *

Assay: Selectivity index, ratio of IC50 for human HepG2 cells to IC50 for […] erythrocytic stage Plasmodium falciparum 3D7
Assay type: toxicity
Conditions: read-out: Selectivity Index
Parameter: selectivity ratio
Response field accepts a number only; no unit should be typed.

Example results:
Cc1nccc2c1[nH]c1ccc(OCc3cn(C/C=C/c4cccc(F)c4)nn3)cc12
19.1
COc1ccc2c(c1)[nH]c1c(C)nccc12
30
Cc1nccc2c1[nH]c1ccc(OCCNC(=O)/C=C/c3cccc(C(F)(F)F)c3)cc12
51.2
COc1ccc(/C=C/Cn2cc(COc3ccc4[nH]c5c(C)nccc5c4c3)nn2)cc1
147

Data request: I am curious: what selectivity ratio value has been reported for `Cc1nccc2c1[nH]c1ccc(OCCNC(=O)/C=C/c3cccc(Br)c3)cc12` ?
Data returned: 39.8

Data request: Also check `Cc1nccc2c1[nH]c1ccc(OCc3cn(C/C=C/c4ccccc4)nn3)cc12`
Data returned: 16.6

Data request: Also check `Cc1nc(CNC(=O)/C=C/c2ccccc2)cc2c1[nH]c1ccccc12`
Data returned: 1.29
